- Tested on: GFP-9S motif 4 LD (synthetic construct)
- test_method_notes: HRP pulldown
- condition_parameters: lysate; HRP: 50 mM Tris pH 8, 150 mM NaCl, 1 mM bME, 50 ug/ml BSA, 3 ug/ml yeast RNA, 0.5% heparin, 2 nM RNA; ITC (25 C) and FP: Tris pH 8, 200 mM KCl, 5% glycerol …
Assignment: determine reported pKd for the given sequences.
Give bare numbers, as −log10 of the molar value.

- sequence_chain: "AUUAUACGUGA [IR-rpoA-U]"
  result_value: 7.18

Would you kindly look at the next entry?
Asked: Which pKd value is on record for AUUAGACGUGA [Cy5-rpoA-G] ?
Given back: 6.74
